collision cross section listing for selected sequences.
test: collision cross section of modified peptide (TIMS, N2, iRT-aligned); higher = larger / more extended gas-phase ion; details: charge state: 2; modification: HexNAc (ST)
Report only the number, with the unit Å² understood.

Observe how each entry below is paired with its result.
Q: For the sequence EVVKPVPITSPAVSK [_EVVKPVPIT(HexNAc (ST))SPAVSK_] , what collision cross section is on record?
A: 445.83

Q: Would you kindly repeat that for VLPSITTEILK [_VLPS(HexNAc (ST))ITTEILK_] ?
A: 396.57

Q: Field entry: ATAVVDGAFK [_AT(HexNAc (ST))AVVDGAFK_]
A: 362.47

New cases:
Q: Query: collision cross section; subject: ASPPLFQSR [_ASPPLFQS(HexNAc (ST))R_]
A: 363.62

Q: // next record STLEEPNLQPLQR [_S(HexNAc (ST))TLEEPNLQPLQR_]
A: 436.25

Q: Also, DHSKPISNPSDNK [_DHS(HexNAc (ST))KPISNPSDNK_] please.
A: 406.95

Q: Now the same for APVGSVVSVPSQSSASSDK [_APVGSVVSVPSQS(HexNAc (ST))SASSDK_]
A: 464.2

Q: Please answer likewise for LGHYATQLQK [_LGHYAT(HexNAc (ST))QLQK_]
A: 388.93

Q: And LSQEDPDYGIR [_LS(HexNAc (ST))QEDPDYGIR_] ?
A: 396.72

Q: Then LSTPPPLAEEEGLASR [_LS(HexNAc (ST))TPPPLAEEEGLASR_] ?
A: 448.88

Q: Would you mind doing VGADGTVFATR [_VGADGTVFAT(HexNAc (ST))R_] as well?
A: 366.62

Q: Also LSEHATAPTR [_LSEHATAPT(HexNAc (ST))R_] ?
A: 370.75

Q: Now consider SSDLTDRVK [_S(HexNAc (ST))SDLTDRVK_] .
A: 362.74

Q: Next: ASTPGAAAQIQEVK [_AS(HexNAc (ST))TPGAAAQIQEVK_]
A: 409.94

Q: Cool, now SLYASSPGGVYATR [_SLYAS(HexNAc (ST))SPGGVYATR_]
A: 421.13

Q: Also VILENIASHEPR [_VILENIAS(HexNAc (ST))HEPR_] , if possible.
A: 443

FYI, the data here is from the supplement of paper PMC10598134.
